Experiment: blockers of HIV-1 envelope-mediated cell-cell fusion – cherry-pick, dose response (AID 652057)
Type: functional, cell-based
Active and inactive are the calls of the source.

Compound | AC50
CCCn1nc(C(=O)Nc2ccc3nc(N4CCOCC4)sc3c2)ccc1=O | 1.85 µM (active)
Cc1ccc(-c2nnn(CC(=O)N(CC3CCCO3)C(C(=O)NC3CCCCC3)c3ccc(F)cc3)n2)o1 (stereo unspecified) | 0.79 µM (active)
OCCCn1c(CCNc2nc(-c3ccc(F)cc3)cs2)nc2cc(C(F)(F)F)ccc21 | 8.76 µM (active)
CC(C)CC#Cc1ccc2c(c1)O[C@@H](CN(C)S(=O)(=O)c1ccc(F)cc1)[C@@H](C)CN([C@H](C)CO)S2(=O)=O | 19.6 µM (active)
COc1cc2c(c(OCC(=O)NC(C)C)c1)C(=O)O[C@@H](C)CCCC(=O)CCCCC2 | 4.35 µM (active)
COc1ccc(C2N(S(=O)(=O)c3ccc(C)cc3)CCN2S(=O)(=O)c2ccc(C)cc2)cc1 | 3.05 µM (active)

---

Target: Peroxisome proliferator-activated receptor gamma/Nuclear receptor coactivator 3 (Homo sapiens);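 further: agonist potency for raising coactivator recruitment to the receptor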
Sequence (P37231 whole entry): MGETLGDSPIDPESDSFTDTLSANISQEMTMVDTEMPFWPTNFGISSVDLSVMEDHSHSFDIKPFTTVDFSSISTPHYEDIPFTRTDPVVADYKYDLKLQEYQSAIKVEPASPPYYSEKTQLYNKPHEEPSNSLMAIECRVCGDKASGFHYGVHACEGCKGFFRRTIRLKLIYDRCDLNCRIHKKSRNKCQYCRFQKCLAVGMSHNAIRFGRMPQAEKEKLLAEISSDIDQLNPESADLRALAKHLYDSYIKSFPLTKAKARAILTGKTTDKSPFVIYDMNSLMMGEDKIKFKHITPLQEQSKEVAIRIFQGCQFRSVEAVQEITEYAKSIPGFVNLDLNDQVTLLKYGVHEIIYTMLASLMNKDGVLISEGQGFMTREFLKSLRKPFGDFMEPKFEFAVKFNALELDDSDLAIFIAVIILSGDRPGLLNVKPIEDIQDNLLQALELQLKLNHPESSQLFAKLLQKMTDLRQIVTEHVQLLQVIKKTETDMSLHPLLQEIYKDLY
Sequence (Q9Y6Q9 whole entry, further chain): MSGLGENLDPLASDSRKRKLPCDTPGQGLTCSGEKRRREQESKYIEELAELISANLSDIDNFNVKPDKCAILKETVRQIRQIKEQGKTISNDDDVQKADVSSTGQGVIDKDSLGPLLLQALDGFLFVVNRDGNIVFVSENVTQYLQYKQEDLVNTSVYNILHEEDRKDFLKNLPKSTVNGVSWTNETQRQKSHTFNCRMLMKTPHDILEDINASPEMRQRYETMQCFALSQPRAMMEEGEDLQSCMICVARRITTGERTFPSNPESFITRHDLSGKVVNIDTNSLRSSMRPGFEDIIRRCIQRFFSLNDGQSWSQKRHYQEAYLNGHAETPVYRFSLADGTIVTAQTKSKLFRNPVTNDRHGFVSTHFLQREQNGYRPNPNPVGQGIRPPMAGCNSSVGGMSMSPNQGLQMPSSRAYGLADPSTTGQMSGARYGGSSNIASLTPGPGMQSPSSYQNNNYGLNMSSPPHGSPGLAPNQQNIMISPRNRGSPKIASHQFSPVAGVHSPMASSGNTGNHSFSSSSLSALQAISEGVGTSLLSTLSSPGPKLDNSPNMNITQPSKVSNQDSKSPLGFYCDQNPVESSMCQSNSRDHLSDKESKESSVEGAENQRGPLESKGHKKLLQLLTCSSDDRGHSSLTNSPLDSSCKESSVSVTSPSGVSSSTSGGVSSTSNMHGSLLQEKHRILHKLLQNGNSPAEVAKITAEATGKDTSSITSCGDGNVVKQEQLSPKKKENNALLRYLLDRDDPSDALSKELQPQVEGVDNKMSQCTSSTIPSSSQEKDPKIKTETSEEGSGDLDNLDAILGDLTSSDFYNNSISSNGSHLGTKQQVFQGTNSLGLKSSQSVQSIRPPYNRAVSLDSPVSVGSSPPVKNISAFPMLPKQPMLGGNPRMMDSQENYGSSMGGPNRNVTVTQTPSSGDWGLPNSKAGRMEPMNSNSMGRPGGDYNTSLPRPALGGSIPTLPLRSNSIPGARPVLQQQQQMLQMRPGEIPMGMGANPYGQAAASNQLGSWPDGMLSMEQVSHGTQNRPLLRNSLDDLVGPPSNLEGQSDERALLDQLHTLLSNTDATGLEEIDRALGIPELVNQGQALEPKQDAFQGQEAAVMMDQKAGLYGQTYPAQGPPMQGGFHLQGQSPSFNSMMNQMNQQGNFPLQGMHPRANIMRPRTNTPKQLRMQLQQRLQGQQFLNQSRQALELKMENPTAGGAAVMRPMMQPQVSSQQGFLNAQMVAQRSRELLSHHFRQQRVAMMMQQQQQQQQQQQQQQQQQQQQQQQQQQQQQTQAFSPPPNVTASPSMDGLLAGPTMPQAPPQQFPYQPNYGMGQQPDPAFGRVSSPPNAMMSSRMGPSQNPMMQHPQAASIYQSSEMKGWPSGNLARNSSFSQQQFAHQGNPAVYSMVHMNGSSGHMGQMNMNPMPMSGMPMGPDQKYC
Assay type: functional

Smiles repr | EC50
CC1(C)Cc2c(C#N)c(SCC(=O)c3ccccc3)nc(N3CCOCC3)c2CO1 | > 79.4 µM (not active)
COc1ccc(-n2nc(C(=O)NCC(=O)Nc3ccccn3)c3ccccc3c2=O)cc1Cl | 37.7 µM (not active)
CC(=O)c1cccc(NC(=O)c2cc3ccccn3n2)c1 | > 79.4 µM (not active)
COc1ccc2c(-c3ccccc3)cc(SCC(=O)NC(N)=O)nc2c1 | > 79.4 µM (not active)

---

Target: Luciferin 4-monooxygenase (Photinus pyralis, UniProt P08659)
Sequence (P08659 whole entry): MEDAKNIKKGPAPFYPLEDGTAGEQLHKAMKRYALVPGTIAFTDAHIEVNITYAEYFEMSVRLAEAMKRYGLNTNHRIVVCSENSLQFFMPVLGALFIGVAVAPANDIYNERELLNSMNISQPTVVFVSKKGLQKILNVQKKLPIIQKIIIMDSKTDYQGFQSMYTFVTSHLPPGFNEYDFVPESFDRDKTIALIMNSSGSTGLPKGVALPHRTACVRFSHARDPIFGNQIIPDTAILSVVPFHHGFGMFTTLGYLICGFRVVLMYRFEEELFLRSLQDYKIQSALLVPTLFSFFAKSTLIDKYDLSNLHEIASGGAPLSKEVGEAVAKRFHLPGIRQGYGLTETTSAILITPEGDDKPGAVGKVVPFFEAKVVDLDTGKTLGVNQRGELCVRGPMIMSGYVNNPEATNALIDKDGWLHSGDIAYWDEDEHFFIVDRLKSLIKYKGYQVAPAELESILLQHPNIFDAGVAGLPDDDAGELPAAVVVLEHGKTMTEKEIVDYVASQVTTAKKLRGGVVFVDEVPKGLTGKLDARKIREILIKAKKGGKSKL
Assay: inhibition of purified Photinus pyralis luciferase – biochemical, luminescence, dose response (AID 1891)
Calls of active or inactive are those of the source.

Molecule | EC50
OC[C@H]1O[C@@H](n2cnc3c(NCCc4ccccc4)ncnc32)[C@H](O)[C@@H]1O | > 112 µM (not active)
CCCSc1ccc2nc(-c3ccccc3)cn2c1 | 0.709 µM (active)
CC(C)c1ccc(NC(S)=NC2CCN(Cc3ccccc3)CC2)cc1 | > 112 µM (not active)
CCOc1ccc(-c2ccc(SC)nn2)cc1 | 2.3 µM (active)
COc1ccc(-c2nc(C[S+]([O-])CC(=O)NC3CCCCC3C)c(C)o2)cc1 (configuration not stated) | > 112 µM (not active)
CCOC(=O)N1CCN(Cc2cc(=O)oc3cc4c(cc23)CCC4)CC1 | > 112 µM (not active)
Cc1ccccc1C(=O)NC1CCN(C(=O)N2CCOCC2)CC1 | > 112 µM (not active)

---

Biological target: Corticotropin-releasing factor receptor 2/Corticotropin-releasing factor-binding protein (Homo sapiens, UniProt P24387+Q13324)
Sequence (Q13324 whole entry): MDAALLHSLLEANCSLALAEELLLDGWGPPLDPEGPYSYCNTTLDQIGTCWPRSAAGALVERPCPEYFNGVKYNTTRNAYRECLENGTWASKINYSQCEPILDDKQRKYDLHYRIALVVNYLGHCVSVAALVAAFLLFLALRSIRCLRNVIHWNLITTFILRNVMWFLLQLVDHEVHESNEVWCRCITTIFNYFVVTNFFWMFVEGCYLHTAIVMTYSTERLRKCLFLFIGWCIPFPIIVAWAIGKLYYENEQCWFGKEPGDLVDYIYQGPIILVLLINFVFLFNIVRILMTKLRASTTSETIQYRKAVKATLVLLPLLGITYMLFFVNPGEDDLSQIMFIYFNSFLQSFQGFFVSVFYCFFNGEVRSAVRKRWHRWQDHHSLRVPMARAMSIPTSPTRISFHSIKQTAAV
Sequence (P24387 whole entry): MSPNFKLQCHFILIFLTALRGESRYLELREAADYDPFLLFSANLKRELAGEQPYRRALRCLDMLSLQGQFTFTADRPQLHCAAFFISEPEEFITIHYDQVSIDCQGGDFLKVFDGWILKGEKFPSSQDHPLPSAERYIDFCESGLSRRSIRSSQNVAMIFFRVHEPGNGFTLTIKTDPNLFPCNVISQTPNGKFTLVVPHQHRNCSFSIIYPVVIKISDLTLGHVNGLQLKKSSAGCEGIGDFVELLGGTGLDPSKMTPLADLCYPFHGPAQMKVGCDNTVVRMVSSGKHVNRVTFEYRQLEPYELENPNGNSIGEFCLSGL
Experiment: activators of CRF receptor 2 with binding protein – uHTS hits, confirmation (AID 602473)
Assay type: functional
Details: read-out: EC50_Mean
Calls of active or inactive are those of the source.
Labels: T for active, F for inactive

Compound | Class name
O=C(NCc1ccccc1C(F)(F)F)c1cccc2c1C(=O)c1ccc(N3CCCCC3)cc1S2(=O)=O | T
Cc1cccc(NC(=O)Cc2ccc(NC3=NC4CS(=O)(=O)CC4S3)cc2)c1 (stereo not given) | F
CC(Oc1ccc(Br)cc1)C(=O)Nc1ccc(S(=O)(=O)NC2=NCCCCC2)cc1 (stereo not given) | T
Cc1ccc(S(=O)(=O)NCC(=O)N(CC(=O)NCc2ccco2)Cc2ccccc2)cc1 | T
CCC(=O)c1ccc(OCC(=O)NCCCN2CCOCC2)cc1 | F
CN(C(=O)COC(=O)CCc1nc2ccccc2c(=O)[nH]1)C1CCS(=O)(=O)C1 (stereo not given) | F
COc1ccc(-c2cc(C(=O)NC3CCCC3)c3ccccc3n2)cc1OC | F
CC1(C)CC2=Nc3ccccc3NCC2=C(O)C1 | F
CCN(C(=O)CCc1nnc2ccc(N3CCC4(CC3)OCCO4)nn12)c1ccccc1 | F
CS(=O)(=O)N1CCN(C(=O)COc2ccc3ccccc3c2)CC1 | F
O=C(Cn1nc(Cl)nc1Cl)Nc1ccccc1 | F
O=C(C1=NN(c2ccccc2)C2C(=O)N(c3ccccc3)C(=O)C12)c1ccccc1 (stereo not given) | T
O=C1CCSc2c1ccc1ccccc21 | F
CCc1c(C)nc(SCC(=O)N2CCN(c3ccccc3OC)CC2)nc1O | F
Cc1nn(CC(=O)N(C)C2(C#N)CCCCC2)c(C)c1[N+](=O)[O-] | F
